// values below are reported IC50
- Test system: K-562
- experimentalDetails: Proliferation inhibition, CellTiter-Glo, K-562
- Assay type: cell-based, human
- runParameters: Homo sapiens, K562, 96 h; K-562 cells, IC50 (4 days), CellTiter-Glo; read-out: K-562 IC50

Please list IC50 recorded for the compound C=CC(=O)Nc1cccc(Nc2nc(N3CCC[C@H](NC(=O)c4ccc(C5CC5)cc4)[C@@H]3C)cnc2C(N)=O)c1 [Compound C-1, reference compound]
> 500 nM

# return recorded IC50 for entry C=CC(=O)N(C)[C@@H](C)C(=O)NCCc1cccc(Nc2nc(N(C)C(C)C)c(CC)nc2C(N)=O)c1
> 500 nM

###

Measured GI50 values are reported for all entries that follow.
- measuredOn: Ba/F3 cell lines stably expressing human FLT3-ITD-F691L (Homo sapiens, UniProt P36888, F691L, cells depend on it, form not given)
- Construct: Ba/F3-FLT3-ITD-F691L Relative IC50
- Sequence (P36888 1-993 F691L): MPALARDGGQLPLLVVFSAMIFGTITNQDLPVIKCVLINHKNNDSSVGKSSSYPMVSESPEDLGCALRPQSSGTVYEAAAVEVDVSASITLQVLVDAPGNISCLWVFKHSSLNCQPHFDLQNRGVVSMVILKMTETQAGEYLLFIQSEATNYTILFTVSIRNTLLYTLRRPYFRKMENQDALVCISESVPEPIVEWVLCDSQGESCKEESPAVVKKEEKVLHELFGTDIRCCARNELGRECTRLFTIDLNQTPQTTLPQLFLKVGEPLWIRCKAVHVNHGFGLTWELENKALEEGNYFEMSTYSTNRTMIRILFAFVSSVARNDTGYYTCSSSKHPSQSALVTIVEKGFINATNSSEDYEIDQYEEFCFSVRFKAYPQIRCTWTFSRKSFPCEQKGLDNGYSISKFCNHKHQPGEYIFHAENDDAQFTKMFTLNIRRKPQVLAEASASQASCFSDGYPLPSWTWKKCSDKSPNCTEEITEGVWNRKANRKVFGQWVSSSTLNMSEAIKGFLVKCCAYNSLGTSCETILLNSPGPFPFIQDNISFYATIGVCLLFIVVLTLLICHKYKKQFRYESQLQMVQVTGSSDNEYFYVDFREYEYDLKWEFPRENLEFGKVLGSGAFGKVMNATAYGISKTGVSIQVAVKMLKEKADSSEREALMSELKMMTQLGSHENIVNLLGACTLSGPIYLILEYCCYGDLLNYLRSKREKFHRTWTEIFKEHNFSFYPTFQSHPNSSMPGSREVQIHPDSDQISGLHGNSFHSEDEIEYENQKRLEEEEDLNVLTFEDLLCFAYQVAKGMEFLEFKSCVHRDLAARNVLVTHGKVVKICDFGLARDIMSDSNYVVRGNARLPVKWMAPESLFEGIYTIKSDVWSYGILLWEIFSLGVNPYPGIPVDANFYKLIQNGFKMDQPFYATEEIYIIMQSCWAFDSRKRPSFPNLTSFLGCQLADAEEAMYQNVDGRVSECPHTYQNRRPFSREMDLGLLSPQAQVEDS
- experimentalDetails: FLT3 mutant assay, cell viability, Ba/F3-FLT3-ITD-F691L
- Assay type: cell-based, mouse
- runParameters: IC50 (3 days), CellTiter-Glo; read-out: Ba/F3-FLT3-ITD-F691L Relative IC50

Dear colleague, please send me the reported GI50 for CCc1nc(C(N)=O)c(Nc2ccc(N3CCC(N4CCN(C)CC4)CC3)c(OC)c2)nc1NC1CCOCC1 [Gilteritinib, gilteritinib, reference compound] when you can.
10 to 100 nM
